// data source = the supplement of paper PMC7877785

Assay: self-splicing fitness, log relative to wild type (ln ratio); higher = more splicing; Tetrahymena group I intron in knt gene, E. coli kanamycin selection, DiMSum; sequences stand for … in CUCUCU…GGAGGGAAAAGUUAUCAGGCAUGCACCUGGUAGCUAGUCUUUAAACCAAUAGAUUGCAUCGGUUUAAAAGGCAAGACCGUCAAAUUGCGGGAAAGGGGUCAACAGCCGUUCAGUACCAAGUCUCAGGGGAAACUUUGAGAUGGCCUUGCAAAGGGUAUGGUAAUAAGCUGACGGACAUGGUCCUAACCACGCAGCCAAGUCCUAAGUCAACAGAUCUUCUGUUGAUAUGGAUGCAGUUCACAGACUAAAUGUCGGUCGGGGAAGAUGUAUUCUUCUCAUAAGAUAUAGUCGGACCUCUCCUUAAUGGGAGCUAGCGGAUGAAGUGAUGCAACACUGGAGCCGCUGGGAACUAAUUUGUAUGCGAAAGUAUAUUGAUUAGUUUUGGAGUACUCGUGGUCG;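 also: selection with 25 µg/mL kanamycin versus none on LB agar overnight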
Settings: 30 °C
Assay metric: self-splicing fitness (ln)
Lab note: record just the number, no unit beside it.

Some solved cases for reference:
INSERT INTO measurements (monomer_sequence, assay_metric, data_value) VALUES
  ('GAUAAGCAAUAUUACGCUCC', 'self-splicing fitness (ln)', -1.82),
  ('GGGAAGCAAUAUUACGUAGU', 'self-splicing fitness (ln)', -3.38),
  ('CAAUAGCAAUAUUACGGAGA', 'self-splicing fitness (ln)', -2.75);

Query: Please give measured self-splicing fitness (ln) of the following entry: `UUCGAGCAAUAUUACGGGUA`
Reply: -1.16

* * *

Assay: self-splicing fitness, log relative to wild type (ln ratio); higher = more splicing; Tetrahymena group I intron in knt gene, E. coli kanamycin selection, DiMSum; sequences stand for … in CUCUCU…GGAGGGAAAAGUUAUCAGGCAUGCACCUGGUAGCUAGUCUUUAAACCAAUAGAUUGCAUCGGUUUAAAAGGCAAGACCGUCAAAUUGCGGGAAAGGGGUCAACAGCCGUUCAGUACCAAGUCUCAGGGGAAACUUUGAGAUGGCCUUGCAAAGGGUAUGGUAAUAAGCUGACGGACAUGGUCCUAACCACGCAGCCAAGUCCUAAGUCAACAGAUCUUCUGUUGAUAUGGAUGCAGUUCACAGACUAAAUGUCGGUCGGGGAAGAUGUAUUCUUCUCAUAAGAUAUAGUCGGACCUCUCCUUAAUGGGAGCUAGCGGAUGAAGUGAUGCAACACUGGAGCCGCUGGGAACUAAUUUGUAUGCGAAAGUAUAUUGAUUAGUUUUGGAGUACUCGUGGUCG
Conditions: 37 °C
Class TRUE: self-splicing fitness (ln) at least -2. Class FALSE: self-splicing fitness (ln) below -2.

INSERT INTO assay_data (monomer_sequence, classification) VALUES
  ('ACCCAGCAAUAUUACGUCAC', 'FALSE'),
  ('CAAGAGCAAUAUUACGCCUA', 'TRUE'),
  ('UUUAAGCAAUAUUACGACCC', 'TRUE'),
  ('CAUAAGCAAUAUUACGGCCA', 'FALSE'),
  ('UUUCAGCAAUAUUACGCUGG', 'TRUE');

Query: Threshold query (self-splicing fitness (ln) >= -2) on `AUAAAGCAAUAUUACGGGAC`
Reply: FALSE

Query: Threshold query (self-splicing fitness (ln) >= -2) on `UGCCAGCAAUAUUACGCUGU`
Reply: TRUE

Query: Threshold query (self-splicing fitness (ln) >= -2) on `CCACAGCAAUAUUACGACAC`
Reply: TRUE

* * *

Assay: self-splicing fitness, log relative to wild type (ln ratio); higher = more splicing; Tetrahymena group I intron in knt gene, E. coli kanamycin selection, DiMSum; sequences stand for … in CUCUCU…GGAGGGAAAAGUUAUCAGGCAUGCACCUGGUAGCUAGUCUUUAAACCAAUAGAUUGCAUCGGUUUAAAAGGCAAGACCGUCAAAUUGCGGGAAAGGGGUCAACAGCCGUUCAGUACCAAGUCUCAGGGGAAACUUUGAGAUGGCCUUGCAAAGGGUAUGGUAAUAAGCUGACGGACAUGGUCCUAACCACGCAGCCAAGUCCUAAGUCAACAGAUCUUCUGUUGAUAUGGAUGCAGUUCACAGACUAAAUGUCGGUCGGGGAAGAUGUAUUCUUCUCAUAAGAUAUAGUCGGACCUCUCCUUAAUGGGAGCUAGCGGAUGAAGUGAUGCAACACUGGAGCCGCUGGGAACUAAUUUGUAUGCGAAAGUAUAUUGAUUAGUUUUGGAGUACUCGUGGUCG
Conditions: 30 °C
Assay metric: self-splicing fitness (ln)
Lab note: record just the number, no unit beside it.

INSERT INTO results (monomer_sequence, assay_metric, data_value) VALUES
  ('AAUAAGCAAUAUUACGCUGG', 'self-splicing fitness (ln)', -1.81),
  ('CGCCAGCAAUAUUACGGGCA', 'self-splicing fitness (ln)', -0.258),
  ('UACCAGCAAUAUUACGAGCU', 'self-splicing fitness (ln)', -3.29),
  ('UUACAGCAAUAUUACGGUCU', 'self-splicing fitness (ln)', -0.96),
  ('UCGCAGCAAUAUUACGAACG', 'self-splicing fitness (ln)', -2.63);

# evaluate next
Query: Please give measured self-splicing fitness (ln) of the following entry: `CUUGAGCAAUAUUACGAACU`
Reply: -4.03

* * *

Test: self-splicing fitness, log relative to wild type (ln ratio); higher = more splicing; Tetrahymena group I intron in knt gene, E. coli kanamycin selection, DiMSum; sequences stand for … in CUCUCU…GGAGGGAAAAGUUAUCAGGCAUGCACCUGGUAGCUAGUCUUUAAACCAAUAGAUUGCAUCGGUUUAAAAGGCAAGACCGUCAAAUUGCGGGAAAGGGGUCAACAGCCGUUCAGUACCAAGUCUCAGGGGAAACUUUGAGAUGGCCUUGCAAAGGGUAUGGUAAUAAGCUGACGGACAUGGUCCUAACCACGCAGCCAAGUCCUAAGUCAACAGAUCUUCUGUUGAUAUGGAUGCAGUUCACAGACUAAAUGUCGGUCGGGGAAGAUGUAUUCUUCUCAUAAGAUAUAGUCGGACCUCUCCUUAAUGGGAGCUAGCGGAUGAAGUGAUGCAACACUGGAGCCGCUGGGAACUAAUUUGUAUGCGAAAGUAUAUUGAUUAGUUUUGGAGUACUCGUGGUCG
Settings: 37 °C
Class YES: self-splicing fitness (ln) at least -2. Class NO: self-splicing fitness (ln) below -2.

Worked examples follow.
INSERT INTO measurements (monomer_sequence, classification) VALUES
  ('UGCCAGCAAUAUUACGUGGU', 'NO'),
  ('CUAAAGCAAUAUUACGGAGA', 'NO'),
  ('UCGUAGCAAUAUUACGAGAG', 'YES'),
  ('CAGGAGCAAUAUUACGUGCU', 'NO'),
  ('CUCUAGCAAUAUUACGAAGG', 'YES'),
  ('CUAAAGCAAUAUUACGCCCG', 'YES');

Query: Threshold query (self-splicing fitness (ln) >= -2) on `CCAGAGCAAUAUUACGAUUU`
Reply: NO

Query: Threshold query (self-splicing fitness (ln) >= -2) on `GCCGAGCAAUAUUACGGCCG`
Reply: YES

Query: Threshold query (self-splicing fitness (ln) >= -2) on `UAAAAGCAAUAUUACGGACU`
Reply: YES

Query: Threshold query (self-splicing fitness (ln) >= -2) on `UAUCAGCAAUAUUACGAGGC`
Reply: NO

Query: Threshold query (self-splicing fitness (ln) >= -2) on `AUCAAGCAAUAUUACGUUAC`
Reply: NO

* * *

Assay: self-splicing fitness, log relative to wild type (ln ratio); higher = more splicing; Tetrahymena group I intron in knt gene, E. coli kanamycin selection, DiMSum; sequences stand for … in CUCUCU…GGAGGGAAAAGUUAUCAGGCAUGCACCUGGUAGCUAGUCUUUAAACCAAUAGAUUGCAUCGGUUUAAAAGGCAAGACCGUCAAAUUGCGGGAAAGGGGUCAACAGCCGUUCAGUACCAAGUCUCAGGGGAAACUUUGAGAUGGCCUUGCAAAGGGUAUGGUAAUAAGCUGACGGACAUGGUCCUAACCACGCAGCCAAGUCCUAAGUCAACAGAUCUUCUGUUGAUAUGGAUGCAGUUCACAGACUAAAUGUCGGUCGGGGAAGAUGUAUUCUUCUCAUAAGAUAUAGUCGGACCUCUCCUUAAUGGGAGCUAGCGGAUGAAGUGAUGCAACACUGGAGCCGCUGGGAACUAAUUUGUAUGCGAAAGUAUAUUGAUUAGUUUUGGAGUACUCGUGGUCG
Settings: 30 °C
Class met: self-splicing fitness (ln) at least -3. Class not met: self-splicing fitness (ln) below -3.

INSERT INTO results (monomer_sequence, classification) VALUES
  ('GGGAAGCAAUAUUACGCAGU', 'met'),
  ('GGUGAGCAAUAUUACGAAGU', 'met'),
  ('CCCAAGCAAUAUUACGUCUG', 'not met');

Query: Threshold query (self-splicing fitness (ln) >= -3) on `GAUCAGCAAUAUUACGCUUU`
Reply: met

Query: Threshold query (self-splicing fitness (ln) >= -3) on `CCAGAGCAAUAUUACGCGGA`
Reply: not met
